- TARGET_OR_SYSTEM: Integrin alpha-V/beta-3 (Homo sapiens, UniProt P05106+P06756)
- Sequence (P05106 27-788 limits assumed): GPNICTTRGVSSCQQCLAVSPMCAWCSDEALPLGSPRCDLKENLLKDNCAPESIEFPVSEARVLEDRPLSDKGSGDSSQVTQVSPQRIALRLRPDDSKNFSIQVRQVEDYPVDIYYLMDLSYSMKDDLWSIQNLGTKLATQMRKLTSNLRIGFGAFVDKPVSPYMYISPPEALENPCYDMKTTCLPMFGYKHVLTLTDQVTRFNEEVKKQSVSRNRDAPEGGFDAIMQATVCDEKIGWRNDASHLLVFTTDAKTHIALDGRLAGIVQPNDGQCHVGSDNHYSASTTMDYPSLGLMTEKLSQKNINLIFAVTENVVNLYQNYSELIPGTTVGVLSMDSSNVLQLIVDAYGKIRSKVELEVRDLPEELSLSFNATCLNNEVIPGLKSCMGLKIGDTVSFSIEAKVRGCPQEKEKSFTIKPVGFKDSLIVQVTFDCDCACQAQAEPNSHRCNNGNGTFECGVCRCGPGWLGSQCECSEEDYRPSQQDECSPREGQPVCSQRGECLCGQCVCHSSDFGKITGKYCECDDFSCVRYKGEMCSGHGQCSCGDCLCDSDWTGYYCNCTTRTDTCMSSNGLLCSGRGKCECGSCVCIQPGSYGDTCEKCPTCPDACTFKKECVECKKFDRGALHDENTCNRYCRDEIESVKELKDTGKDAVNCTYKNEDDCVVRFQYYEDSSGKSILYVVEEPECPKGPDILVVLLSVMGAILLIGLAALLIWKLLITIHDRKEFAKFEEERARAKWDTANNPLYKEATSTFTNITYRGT
- Sequence (P06756 31-889 limits assumed): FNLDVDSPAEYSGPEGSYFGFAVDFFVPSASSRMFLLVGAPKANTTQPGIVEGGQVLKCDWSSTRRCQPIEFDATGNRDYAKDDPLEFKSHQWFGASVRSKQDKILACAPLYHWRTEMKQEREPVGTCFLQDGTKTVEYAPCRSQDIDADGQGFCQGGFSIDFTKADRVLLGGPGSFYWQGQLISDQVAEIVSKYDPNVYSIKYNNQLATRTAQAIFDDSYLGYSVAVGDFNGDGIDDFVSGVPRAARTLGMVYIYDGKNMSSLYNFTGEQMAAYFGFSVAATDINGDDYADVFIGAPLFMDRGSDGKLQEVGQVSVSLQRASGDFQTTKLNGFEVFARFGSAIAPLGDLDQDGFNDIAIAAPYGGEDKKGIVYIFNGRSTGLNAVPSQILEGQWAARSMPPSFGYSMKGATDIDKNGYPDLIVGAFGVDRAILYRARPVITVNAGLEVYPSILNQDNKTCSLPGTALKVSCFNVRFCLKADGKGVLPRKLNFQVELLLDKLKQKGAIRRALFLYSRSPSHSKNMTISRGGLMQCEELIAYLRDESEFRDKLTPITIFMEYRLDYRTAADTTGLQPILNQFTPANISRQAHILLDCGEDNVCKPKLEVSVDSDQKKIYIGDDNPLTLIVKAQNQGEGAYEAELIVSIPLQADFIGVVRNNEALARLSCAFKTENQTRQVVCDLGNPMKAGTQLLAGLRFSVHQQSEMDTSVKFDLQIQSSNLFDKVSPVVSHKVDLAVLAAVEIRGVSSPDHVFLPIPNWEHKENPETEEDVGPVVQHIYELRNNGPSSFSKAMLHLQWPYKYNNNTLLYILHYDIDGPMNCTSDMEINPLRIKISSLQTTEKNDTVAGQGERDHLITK
- Sequence (P06756 891-1048 limits assumed): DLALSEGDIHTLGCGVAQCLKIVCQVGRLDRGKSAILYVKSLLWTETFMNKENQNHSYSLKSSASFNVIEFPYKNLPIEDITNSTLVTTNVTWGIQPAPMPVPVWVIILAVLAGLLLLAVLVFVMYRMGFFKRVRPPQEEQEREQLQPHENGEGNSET
- EXPERIMENT: Inhibition of vitronectin binding to human alphaVbeta3 integrin after 1 hr by ELISA
Please note: IC50 exactly at 0.9 nM is rule not met. Only values below 0.9 nM get rule met.

State whether 0.9 nM exceeds IC50 recorded for C[C@@H](NC(=O)[C@H](CC(=O)O)NC(=O)CNC(=O)c1cccc(NC(=N)N)c1)c1ccccc1 . rule not met

Consider N=C(N)Nc1cccc(C(=O)NCC(=O)N[C@@H](CC(=O)O)C(=O)NCCc2ccc3ccccc3c2)c1 . Does its IC50 lie strictly below 0.9 nM? rule not met

Lab log: compare recorded IC50 with 0.9 nM; is it strictly lower for N=C(N)Nc1cccc(C(=O)NCC(=O)N[C@@H](CC(=O)O)C(=O)NCCc2c[nH]c3ccccc23)c1 ? rule not met

Okay, next one:
is_below(IC50, 0.9 nM) for N=C(N)Nc1cccc(C(=O)NCC(=O)N[C@@H](CC(=O)O)C(=O)Nc2ccccc2)c1 ? rule met

###

- TARGET_OR_SYSTEM: Integrin alpha-5/beta-1 (Homo sapiens, UniProt P05556+P08648)
- Sequence (P05556 21-798 limits assumed): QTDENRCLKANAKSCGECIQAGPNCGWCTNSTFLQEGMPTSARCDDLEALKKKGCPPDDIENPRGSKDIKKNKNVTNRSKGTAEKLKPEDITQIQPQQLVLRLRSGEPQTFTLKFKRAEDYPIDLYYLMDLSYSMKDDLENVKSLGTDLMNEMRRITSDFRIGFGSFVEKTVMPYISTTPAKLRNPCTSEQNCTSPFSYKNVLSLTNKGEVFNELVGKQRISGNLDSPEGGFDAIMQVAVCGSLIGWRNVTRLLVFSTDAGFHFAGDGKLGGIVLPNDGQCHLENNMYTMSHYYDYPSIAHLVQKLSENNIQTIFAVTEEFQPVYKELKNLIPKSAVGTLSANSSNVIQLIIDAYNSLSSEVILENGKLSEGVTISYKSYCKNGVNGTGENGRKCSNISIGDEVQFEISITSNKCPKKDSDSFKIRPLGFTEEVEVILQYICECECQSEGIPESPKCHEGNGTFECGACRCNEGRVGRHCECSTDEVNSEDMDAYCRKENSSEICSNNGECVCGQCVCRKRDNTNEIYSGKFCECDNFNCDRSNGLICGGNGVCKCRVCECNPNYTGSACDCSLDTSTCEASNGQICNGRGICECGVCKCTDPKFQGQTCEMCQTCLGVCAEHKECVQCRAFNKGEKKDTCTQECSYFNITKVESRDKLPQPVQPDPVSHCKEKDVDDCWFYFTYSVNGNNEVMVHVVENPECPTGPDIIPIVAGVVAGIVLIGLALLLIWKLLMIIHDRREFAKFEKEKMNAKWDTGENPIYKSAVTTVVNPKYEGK
- Sequence (P08648 42-894 limits assumed): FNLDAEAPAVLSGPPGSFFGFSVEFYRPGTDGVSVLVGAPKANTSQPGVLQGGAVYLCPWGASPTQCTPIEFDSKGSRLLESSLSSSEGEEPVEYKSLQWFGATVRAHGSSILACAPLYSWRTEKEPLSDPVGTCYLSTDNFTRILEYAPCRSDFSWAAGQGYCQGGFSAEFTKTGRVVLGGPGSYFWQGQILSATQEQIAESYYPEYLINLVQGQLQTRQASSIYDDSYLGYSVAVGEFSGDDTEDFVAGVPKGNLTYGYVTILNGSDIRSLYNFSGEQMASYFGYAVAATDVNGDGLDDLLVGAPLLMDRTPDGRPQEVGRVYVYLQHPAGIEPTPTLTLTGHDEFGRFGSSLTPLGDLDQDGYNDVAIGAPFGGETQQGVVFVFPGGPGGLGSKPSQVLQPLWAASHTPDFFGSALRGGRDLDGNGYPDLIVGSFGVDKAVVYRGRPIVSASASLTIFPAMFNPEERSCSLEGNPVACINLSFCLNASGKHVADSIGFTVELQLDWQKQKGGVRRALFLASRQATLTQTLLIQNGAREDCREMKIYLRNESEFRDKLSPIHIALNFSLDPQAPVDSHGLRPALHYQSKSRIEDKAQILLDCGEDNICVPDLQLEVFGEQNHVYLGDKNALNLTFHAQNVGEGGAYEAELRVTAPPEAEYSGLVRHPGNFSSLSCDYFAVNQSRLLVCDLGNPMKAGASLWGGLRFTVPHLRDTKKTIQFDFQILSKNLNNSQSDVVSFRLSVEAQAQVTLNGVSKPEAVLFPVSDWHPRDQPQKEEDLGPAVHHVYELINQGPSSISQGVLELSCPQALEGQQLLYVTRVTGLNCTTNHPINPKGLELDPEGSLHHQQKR
- Sequence (P08648 895-1049 limits assumed): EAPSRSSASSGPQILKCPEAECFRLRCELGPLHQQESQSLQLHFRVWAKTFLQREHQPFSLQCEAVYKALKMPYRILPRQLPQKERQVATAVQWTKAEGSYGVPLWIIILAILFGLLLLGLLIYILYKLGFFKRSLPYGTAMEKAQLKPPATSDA
- EXPERIMENT: Inhibition of fibronectin binding to soluble alpha5beta1 integrin (unknown origin) after 1 hr by ELISA
A collection of compounds and their measured pIC50
Hey, just a heads up that pIC50 is the negative log base 10 of the concentration in molar.

Worked examples, 3 compounds total:
Give the measured pIC50 for N=C(N)Nc1cccc(C(=O)NCC(=O)N[C@@H](CC(=O)O)C(=O)NCCc2ccc3ccccc3c2)c1 7.12

Dear colleague, please send me the reported pIC50 for N=C(N)Nc1cccc(C(=O)NCC(=O)N[C@@H](CC(=O)O)C(=O)Nc2cccc3ccccc23)c1 when you can. 7.66

Name the recorded pIC50 of the item C[C@@H](NC(=O)[C@H](CC(=O)O)NC(=O)CNC(=O)c1cccc(NC(=N)N)c1)c1ccccc1 in your answer. 7.35

Next:
Provide measured pIC50 value, entry: N=C(N)Nc1cccc(C(=O)NCC(=O)N[C@@H](CC(=O)O)C(=O)NC(c2ccccc2)c2ccccc2)c1 7.66

Output pIC50 of N=C(N)Nc1cccc(C(=O)NCC(=O)N[C@@H](CC(=O)O)C(=O)NCCc2c[nH]c3ccccc23)c1 7.44

Quickly give me recorded pIC50 for N=C(N)Nc1cccc(C(=O)NCC(=O)N[C@@H](CC(=O)O)C(=O)NCc2cccc(-c3ccccc3)c2)c1 7.74

Return value of pIC50 for input N=C(N)Nc1cccc(C(=O)NCC(=O)N[C@@H](CC(=O)O)C(=O)NCc2ccc(Cl)cc2)c1 , no commentary. 7.32

// fetch pIC50 given entry COc1ccc(CNC(=O)[C@H](CC(=O)O)NC(=O)CNC(=O)c2cccc(NC(=N)N)c2)cc1 7.40

###

- TARGET_OR_SYSTEM: Integrin alpha-V/beta-3 (Homo sapiens, UniProt P05106+P06756)
- EXPERIMENT: Inhibition of vitronectin binding to human alphaVbeta3 integrin after 1 hr by ELISA
Measured IC50 of individual entries
# number only, unit nM dropped from output

The following compounds have reported results that may help.
Tell us which IC50 value is on record for N=C(N)Nc1cccc(C(=O)NCC(=O)N[C@@H](CC(=O)O)C(=O)NCc2ccc(Cl)cc2)c1 1.3

Check the records and state IC50 for N=C(N)Nc1cccc(C(=O)NCC(=O)N[C@@H](CC(=O)O)C(=O)Nc2cccc3ccccc23)c1 4.5

Tell me IC50 reported for N=C(N)Nc1cccc(C(=O)NCC(=O)N[C@@H](CC(=O)O)C(=O)NCc2cccc(-c3ccccc3)c2)c1 1.2

Please indicate IC50 recorded for N=C(N)Nc1cccc(C(=O)NCC(=O)N[C@@H](CC(=O)O)C(=O)NC(c2ccccc2)c2ccccc2)c1 1.4

Let me know recorded IC50 for N=C(N)Nc1cccc(C(=O)NCC(=O)N[C@@H](CC(=O)O)C(=O)NCc2ccccc2)c1 , thanks. 0.79

Next:
Give the value of IC50 reported for the following: N=C(N)Nc1cccc(C(=O)NCC(=O)N[C@@H](CC(=O)O)C(=O)NCc2ccc(-c3ccccc3)cc2)c1 1.7

Item COc1ccc(CNC(=O)[C@H](CC(=O)O)NC(=O)CNC(=O)c2cccc(NC(=N)N)c2)cc1 : provide IC50 1.2

Please list IC50 recorded for the compound N=C(N)Nc1cccc(C(=O)NCC(=O)N[C@@H](CC(=O)O)C(=O)NCCc2ccccc2)c1 2.8

###

- TARGET_OR_SYSTEM: UniProtKB Q00987
- Sequence (Q00987 whole entry): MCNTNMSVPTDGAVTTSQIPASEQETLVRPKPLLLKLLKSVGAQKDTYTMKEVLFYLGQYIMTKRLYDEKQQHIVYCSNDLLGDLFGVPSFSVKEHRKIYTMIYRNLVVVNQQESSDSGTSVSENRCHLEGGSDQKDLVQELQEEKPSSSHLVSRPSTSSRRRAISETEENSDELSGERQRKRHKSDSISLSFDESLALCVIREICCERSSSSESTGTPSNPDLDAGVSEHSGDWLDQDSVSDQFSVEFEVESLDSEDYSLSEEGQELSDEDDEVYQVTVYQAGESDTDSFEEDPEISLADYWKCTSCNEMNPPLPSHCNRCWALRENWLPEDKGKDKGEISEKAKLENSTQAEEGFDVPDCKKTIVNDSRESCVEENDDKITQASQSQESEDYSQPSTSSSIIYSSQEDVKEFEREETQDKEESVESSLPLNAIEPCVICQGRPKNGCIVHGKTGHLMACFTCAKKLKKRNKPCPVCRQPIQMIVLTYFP
- EXPERIMENT: Displacement of p53 from MDM2 in human U87MG cells incubated for 10 mins by sandwich ELISA method
ASSAY_READOUT: IC50

Here are 2 molecules together with their reported answers.
Write down IC50 measured for item N=C(N)Nc1cccc(C(=O)NCC(=O)N[C@@H](CC(=O)O)C(=O)Nc2ccccc2)c1 > 1000 nM

Respond only with IC50 recorded for N=C(N)Nc1cccc(C(=O)NCC(=O)N[C@@H](CC(=O)O)C(=O)NCc2ccccc2)c1 > 1000 nM

Proceeding to the next molecule to report its IC50.
Answer with the recorded IC50 for the molecule listed here: N=C(N)Nc1cccc(C(=O)NCC(=O)N[C@@H](CC(=O)O)C(=O)NCC(c2ccccc2)c2ccccc2)c1 > 1000 nM

###

- TARGET_OR_SYSTEM: Integrin alpha-5/beta-1 (Homo sapiens, UniProt P05556+P08648)
- EXPERIMENT: Inhibition of fibronectin binding to soluble alpha5beta1 integrin (unknown origin) after 1 hr by ELISA
Could you please mark 1 for values of IC50 below 20 nM and -1 for values at or above it?

Could you please tell me whether IC50 recorded for N=C(N)Nc1cccc(C(=O)NCC(=O)N[C@@H](CC(=O)O)C(=O)NCc2ccccc2)c1 is less than 20 nM? -1

Report whether reported IC50 is lower than 20 nM (strictly) for N=C(N)Nc1cccc(C(=O)NCC(=O)N[C@@H](CC(=O)O)C(=O)Nc2ccccc2)c1 1

###

Measured IC50, listed per entry.
- TARGET_OR_SYSTEM: Integrin alpha-5/beta-1 (Homo sapiens, UniProt P05556+P08648)
- EXPERIMENT: Inhibition of fibronectin binding to soluble alpha5beta1 integrin (unknown origin) after 1 hr by ELISA

State recorded IC50 with Integrin alpha-5/beta-1 (Homo sapiens, UniProt P05556+P08648), entry C[C@H](NC(=O)[C@H](CC(=O)O)NC(=O)CNC(=O)c1cccc(NC(=N)N)c1)c1ccccc1 , no comment. 20 nM

# return IC50 of N=C(N)Nc1cccc(C(=O)NCC(=O)N[C@@H](CC(=O)O)C(=O)NCCc2ccccc2)c1 (system: Integrin alpha-5/beta-1 (Homo sapiens, UniProt P05556+P08648)) 28 nM

Give IC50; test system Integrin alpha-5/beta-1 (Homo sapiens, UniProt P05556+P08648); molecule N=C(N)Nc1cccc(C(=O)NCC(=O)N[C@@H](CC(=O)O)C(=O)NCc2ccc(-c3ccccc3)cc2)c1 41 nM

Provide the reported IC50 (system: Integrin alpha-5/beta-1 (Homo sapiens, UniProt P05556+P08648)) for N=C(N)Nc1cccc(C(=O)NCC(=O)N[C@@H](CC(=O)O)C(=O)NCC(c2ccccc2)c2ccccc2)c1 22 nM

Values from ChEMBL document CHEMBL4138308
